Each entry below carries its recorded Percent Effect.
# target-system: AMP-activated protein kinase, AMPK (Homo sapiens) (UniProt P54646+O43741+P54619+Q9UGJ0+Q9Y478+Q13131+Q9UGI9)
# assay: AMP-dependent Kinase enzyme assay. An in vitro enzyme assay that detects ADP turnover that is directly proportional to AMPK activity. This uses naive AMPK that is activated during the assay with MK-8722
# Type: functional
# Parameters: scale not given: direction of the effect not stated beside the values
# settings: 30 µM
Numbers only; they are read as %.

Use the examples below as a reference point.
For COc1ccccc1CN(Cc1nc(CC(C)C)no1)C1CC1 the compound record lists Percent Effect as 14.9

So, CS(=O)(=O)NCC1CCCN(Cc2ccccc2F)C1 (centres undefined) ? Its Percent Effect was -6.5

// sample CN1C[C@@H]2CC[C@H](CC1=O)N2C(=O)c1cc2ccccc2[nH]c1=O , its Percent Effect was 5.77

Form field Percent Effect, entry CC(C)C(NC(=O)C1CCCC1)c1cc(O)nc(-c2cccnc2)n1 (centres undefined) : 0.00151

Per the record, COCCN1C(=O)[C@H]2CC[C@@H]1CN(S(=O)(=O)c1ccc(C#N)cc1)C2 has Percent Effect of 10.8

get_value(item= Cc1cc(C(=O)N2CCCC(c3ccc(C(=O)O)cc3)C2)c(C)o1 (centres undefined) , readout=Percent Effect) returns 4.65

Continuing:
Record summary for Cc1cc(-n2cccn2)ccc1CN1C[C@@H](CN(C)C)[C@@H](CO)C1 : reported Percent Effect = -2

Entry under test: CCOc1ccc2cc(C(=O)NCCC(=O)N(C)C)[nH]c2c1 . Its Percent Effect was -3.77

Entry CCOCCC(=O)Nc1cccc(Cl)c1COC — recorded Percent Effect = -0.185

Entry Cc1ccnc(NC(=O)c2ccc(Br)o2)c1 ; Percent Effect = 5.24

Looking up CN(C)c1cccc(C(=O)Nc2cnn(Cc3ccccn3)c2)c1 , I see its Percent Effect listed as -43.1

What the record says about NC(=O)COc1ccc(CN2CC[C@@]3(O)CCCC[C@H]3C2)cc1Cl : Percent Effect is 3.71
